- Tested on: HeLa Kyoto
- Experimental details: thermal stability score vs G1/S (z-score of summed log2 fold changes over temperatures); higher = more thermally stable than in G1/S
- Particulars: cell cycle stage: mitosis

Residue string | Test system | thermal stability score
MAGLPRRIIKETQRLLAEPVPGIKAEPDESNARYFHVVIAGPQDSPFEGGTFKLELFLPEEYPMAAPKVRFMTKIYHPNVDKLGRICLDILKDKWSPALQIRTVLLSIQALLSAPNPDDPLANDVAEQWKTNEAQAIETARAWTRLYAMNNI [UBE2N] | HeLa Kyoto | -0.49
MSDLLLLGLIGGLTLLLLLTLLAFAGYSGLLAGVEVSAGSPPIRNVTVAYKFHMGLYGETGRLFTESCSISPKLRSIAVYYDNPHMVPPDKCRCAVGSILSEGEESPSPELIDLYQKFGFKVFSFPAPSHVVTATFPYTTILSIWLATRRVHPALDTYIKERKLCAYPRLEIYQEDQIHFMCPLARQGDFYVPEMKETEWKWRGLVEAIDTQVDGTGADTMSDTSSVSLEVSPGSRETSAATLSPGASSRGWDDGDTRSEHSYSESGASGSSFEELDLEGEGPLGESRLDPGTEPLGTTKWLWEPTAPEKGKE [TEX264] | HeLa Kyoto | -0.347
MGSAGLSRLHGLFAVYKPPGLKWKHLRDTVELQLLKGLNARKPPAPKQRVRFLLGPMEGSEEKELTLTATSVPSFINHPLVCGPAFAHLKVGVGHRLDAQASGVLVLGVGHGCRLLTDMYNAHLTKDYTVRGLLGKATDDFREDGRLVEKTTYDHVTREKLDRILAVIQGSHQKALVMYSNLDLKTQEAYEMAVRGLIRPMNKSPMLITGIRCLYFAPPEFLLEVQCMHETQKELRKLVHEIGLELKTTAVCTQVRRTRDGFFTLDSALLRTQWDLTNIQDAIRAATPQVAAELEKSLSPGLDTKQLPSPGWSWDSQGPSSTLGLERGAGQ [TRUB2] | HeLa Kyoto | 0.385

###

- Tested on: HeLa Kyoto
- Experimental details: thermal stability score vs G1/S (z-score of summed log2 fold changes over temperatures); higher = more thermally stable than in G1/S
- Particulars: cell cycle stage: early G1 (4.5 h after nocodazole release)

Substance | thermal stability score
MRHLPYFCRGQVVRGFGRGSKQLGIPTANFPEQVVDNLPADISTGIYYGWASVGSGDVHKMVVSIGWNPYYKNTKKSMETHIMHTFKEDFYGEILNVAIVGYLRPEKNFDSLESLISAIQGDIEEAKKRLELPEHLKIKEDNFFQVSKSKIMNGH [RFK] | 0.0986
MAGPGPGPGDPDEQYDFLFKLVLVGDASVGKTCVVQRFKTGAFSERQGSTIGVDFTMKTLEIQGKRVKLQIWDTAGQERFRTITQSYYRSANGAILAYDITKRSSFLSVPHWIEDVRKYAGSNIVQLLIGNKSDLSELREVSLAEAQSLAEHYDILCAIETSAKDSSNVEEAFLRVATELIMRHGGPLFSEKSPDHIQLNSKDIGEGWGCGC [RAB43] | -0.0567
MAEVKVKVQPPDADPVEIENRIIELCHQFPHGITDQVIQNEMPHIEAQQRAVAINRLLSMGQLDLLRSNTGLLYRIKDSQNAGKMKGSDNQEKLVYQIIEDAGNKGIWSRDIRYKSNLPLTEINKILKNLESKKLIKAVKSVAASKKKVYMLYNLQPDRSVTGGAWYSDQDFESEFVEVLNQQCFKFLQSKAETARESKQNPMIQRNSSFASSHEVWKYICELGISKVELSMEDIETILNTLIYDGKVEMTIIAAKEGTVGSVDGHMKLYRAVNPIIPPTGLVRAPCGLCPVFDDCHEGGEISPSNCIYMTEWLEF [POLR3F] | -0.67
ARHGAP35 | 1.69
MSELPGDVRAFLREHPSLRLQTDARKVRCILTGHELPCRLPELQVYTRGKKYQRLVRASPAFDYAEFEPHIVPSTKNPHQLFCKLTLRHINKCPEHVLRHTQGRRYQRALCKYEECQKQGVEYVPACLVHRRRRREDQMDGDGPRPREAFWEPTSSDEGGAASDDSMTDLYPPELFTRKDLGSTEDGDGTDDFLTDKEDEKAKPPREKATDEGRRETTVYRGLVQKRGKKQLGSLKKKFKSHHRKPKSFSSCKQPG [SURF2] | 0.779
MASVGECPAPVPVKDKKLLEVKLGELPSWILMRDFSPSGIFGAFQRGYYRYYNKYINVKKGSISGITMVLACYVLFSYSFSYKHLKHERLRKYH [ATP5J2] | -0.273
MPHSYPALSAEQKKELSDIALRIVAPGKGILAADESVGSMAKRLSQIGVENTEENRRLYRQVLFSADDRVKKCIGGVIFFHETLYQKDDNGVPFVRTIQDKGIVVGIKVDKGVVPLAGTDGETTTQGLDGLSERCAQYKKDGADFAKWRCVLKISERTPSALAILENANVLARYASICQQNGIVPIVEPEILPDGDHDLKRCQYVTEKVLAAVYKALSDHHVYLEGTLLKPNMVTPGHACPIKYTPEEIAMATVTALRRTVPPAVPGVTFLSGGQSEEEASFNLNAINRCPLPRPWALTFSYGRALQASALNAWRGQRDNAGAATEEFIKRAEVNGLAAQGKYEGSGEDGGAAAQSLYIANHAY [ALDOC] | -1.31

###

- System: HeLa Kyoto
- Experimental details: solubility change mitosis vs G1/S (difference of NP-40 vs SDS log2 ratios) (log2 ratio difference); higher = more soluble in mitosis
Assign met whenever solubility change mitosis (log2) does not fall below -0.03; assign not met whenever it does.

Substance | Qualitative label
MFKNTFQSGFLSILYSIGSKPLQIWDKKVRNGHIKRITDNDIQSLVLEIEGTNVSTTYITCPADPKKTLGIKLPFLVMIIKNLKKYFTFEVQVLDDKNVRRRFRASNYQSTTRVKPFICTMPMRLDDGWNQIQFNLLDFTRRAYGTNYIETLRVQIHANCRIRRVYFSDRLYSEDELPAEFKLYLPVQNKAKQ [CFAP20] | met
HDGFRP2 | met
MSQATKRKHVVKEVLGEHIVPSDQQQIVRVLRTPGNNLHEVETAQGQRFLVSMPSKYRKNIWIKRGDFLIVDPIEEGEKVKAEISFVLCKDHVRSLQKEGFWPEAFSEVAEKHNNRNRQTQPELPAEPQLSGEESSSEDDSDLFVNTNRRQYHESEEESEEEEAA [EIF1AD] | met
MEPPMEPSGGEQEPGAVRFLDLPWEDVLLPHVLNRVPLRQLLRLQRVSRAFRSLVQLHLAGLRRFDAAQVGPQIPRAALARLLRDAEGLQELALAPCHEWLSDEDLVPVLARNPQLRSVALGGCGQLSRRALGALAEGCPRLQRLSLAHCDWVDGLALRGLADRCPALEELDLTACRQLKDEAIVYLAQRRGAGLRSLSLAVNANVGDAAVQELARNCPELHHLDLTGCLRVGSDGVRTLAEYCPVLRSLRVRHCHHVAESSLSRLRKRGVDIDVEPPLHQALVLLQDMAGFAPFVNLQV [FBXL15] | not met

###

- Test system: HeLa Kyoto
- Experimental details: solubility change mitosis vs G1/S (difference of NP-40 vs SDS log2 ratios) (log2 ratio difference); higher = more soluble in mitosis
As shown below, each of these sequences has a reported solubility change mitosis (log2) value.

Residue string | solubility change mitosis (log2)
MARPGMERWRDRLALVTGASGGIGAAVARALVQQGLKVVGCARTVGNIEELAAECKSAGYPGTLIPYRCDLSNEEDILSMFSAIRSQHSGVDICINNAGLARPDTLLSGSTSGWKDMFNVNVLALSICTREAYQSMKERNVDDGHIININSMSGHRVLPLSVTHFYSATKYAVTALTEGLRQELREAQTHIRATCISPGVVETQFAFKLHDKDPEKAAATYEQMKCLKPEDVAEAVIYVLSTPAHIQIGDIQMRPTEQVT [DHRS11] | -0.00389
MWPPCGTLRTLALARSRGARACSGDGGVSYTQGQSPEPRTREYFYYVDHQGQLFLDDSKMKNFITCFKDPQFLVTFFSRLRPNRSGRYEAAFPFLSPCGRERNFLRCEDRPVVFTHLLTADHGPPRLSYCGGGEALAVPFEPARLLPLAANGRLYHPAPERAGGVGLVRSALAFELSACFEYGPGAPALPSHVRWQGRRLALTMDLAPLLLAARSP [C8ORF82] | 0.0375

###

- Test system: HeLa Kyoto
- Experimental details: solubility in G1/S (NP-40 vs SDS abundance) (log2 ratio); higher = more soluble
- Particulars: cell cycle stage: G1/S

Residue string | solubility in G1/S (log2)
MDDSETGFNLKVVLVSFKQCLDEKEEVLLDPYIASWKGLVRFLNSLGTIFSFISKDVVSKLRIMERLRGGPQSEHYRSLQAMVAHELSNRLVDLERRSHHPESGCRTVLRLHRALHWLQLFLEGLRTSPEDARTSALCADSYNASLAAYHPWVVRRAVTVAFCTLPTREVFLEAMNVGPPEQAVQMLGEALPFIQRVYNVSQKLYAEHSLLDLP [CPTP] | -0.0351
MSELPGDVRAFLREHPSLRLQTDARKVRCILTGHELPCRLPELQVYTRGKKYQRLVRASPAFDYAEFEPHIVPSTKNPHQLFCKLTLRHINKCPEHVLRHTQGRRYQRALCKYEECQKQGVEYVPACLVHRRRRREDQMDGDGPRPREAFWEPTSSDEGGAASDDSMTDLYPPELFTRKDLGSTEDGDGTDDFLTDKEDEKAKPPREKATDEGRRETTVYRGLVQKRGKKQLGSLKKKFKSHHRKPKSFSSCKQPG [SURF2] | 0.0911
